Could you please report measured pest or weed control at 1000 g/ha for the items listed next?
Test system: Alopecurus myosuroides (ALOMY)
Assay: Post-emergence biological efficacy, glasshouse pot test
Assay type: in vivo
Experimental Context: 312 h, post-emergence, 1,000 g/ha, evaluated after 13 days (100=total damage; 0=no damage), read-out: Percentage damage caused to weed species, ALOMY
// return numeric value only (unit: %, not printed)

Data request, read-out pest or weed control at 1000 g/ha, for "O=C(O)c1nc(C2CC2)nc(NCc2c(Cl)cccc2Cl)c1Cl"
0

Data request, read-out pest or weed control at 1000 g/ha, for COC(=O)c1nc(C2CC2)nc(NCC(C)(F)c2ccc(Cl)cc2Cl)c1Cl (stereo not drawn)
0

Data request, read-out pest or weed control at 1000 g/ha, for "COC(=O)c1nc(C2CC2)nc(NCC2CCCCCCC2)c1Cl"
0

Data request, read-out pest or weed control at 1000 g/ha, for "COC(=O)c1nc(C2CC2)nc(NCC(c2ccccc2)c2ccccc2)c1Cl"
10

Data request, read-out pest or weed control at 1000 g/ha, for COC(=O)c1nc(C2CC2)nc(NCC(F)c2ccc(F)cc2F)c1Cl (stereo not drawn)
10

Data request, read-out pest or weed control at 1000 g/ha, for COC(=O)c1nc(C2CC2)nc(NCC(O)COc2ccc(Cl)cc2)c1Cl (stereo not drawn)
30

Data request, read-out pest or weed control at 1000 g/ha, for "COC(=O)c1nc(C2CC2)nc(NCc2nc3ccccc3s2)c1Cl"
30

Data request, read-out pest or weed control at 1000 g/ha, for COC(=O)c1nc(C2CC2)nc(NC(CS(C)(=O)=O)c2ccc(OC)cc2)c1Cl (stereo not drawn)
0

Data request, read-out pest or weed control at 1000 g/ha, for "COC(=O)c1nc(C2CC2)nc(NCc2ccc(OC(F)(F)F)cc2)c1Cl"
20

Data request, read-out pest or weed control at 1000 g/ha, for "COC(=O)c1nc(C2CC2)nc(NCc2ccc(OC)c(OC)c2)c1Cl"
40

Data request, read-out pest or weed control at 1000 g/ha, for "COC(=O)c1nc(C2CC2)nc(N[C@H]2c3ccccc3C[C@H]2O)c1Cl"
50

Data request, read-out pest or weed control at 1000 g/ha, for "COC(=O)c1nc(C2CC2)nc(NCc2ccccc2N2CCOCC2)c1Cl"
50

Data request, read-out pest or weed control at 1000 g/ha, for "COC(=O)c1nc(C2CC2)nc(NCc2ccc3c(c2)OCO3)c1Cl"
60

Data request, read-out pest or weed control at 1000 g/ha, for "COC(=O)c1nc(C2CC2)nc(NCc2c(F)cccc2F)c1Cl"
50

Data request, read-out pest or weed control at 1000 g/ha, for C=CC(Nc1nc(C2CC2)nc(C(=O)OC)c1Cl)c1ccccc1 (stereo not drawn)
40

Data request, read-out pest or weed control at 1000 g/ha, for "COC(=O)c1nc(C2CC2)nc(NCCc2ccccc2)c1Cl"
30

Data request, read-out pest or weed control at 1000 g/ha, for "Cc1ccc(CNc2nc(C3CC3)nc(C(=O)O)c2Cl)o1"
80

Data request, read-out pest or weed control at 1000 g/ha, for "COC(=O)c1nc(C2CC2)nc(NCc2cc(OC)c(OC)c(OC)c2)c1Cl"
20
